Tested on: MCF7
Procedure Summary: Antiproliferative activity against human MCF7 cells assessed as inhibition of cell growth at 4 to 10 uM incubated for 72 hrs by MTT assay
Assay type: functional, cell-based
Applied Conditions: dose 4-10 µM
Activity calls are given as the source filed them. The calls are words filed in the database; no cut-off is given here.
Possible outcomes: class 1 (active), class 0 (inactive)

Smiles Representation: CCCCCCCC(=O)Nc1ccc(O)cc1
Class Name: class 0
//
Smiles Representation: CCCCCCCCCC(=O)Nc1ccc(O)cc1
Class Name: class 0
//
Smiles Representation: CCCCCCCCCCCC(=O)Nc1ccc(O)cc1
Class Name: class 0
//
Smiles Representation: O=C(O)CCCCCCCCC(=O)Nc1ccc(O)cc1
Class Name: class 1
//
Smiles Representation: O=C(O)CCCCCCC(=O)Nc1ccc(O)cc1
Class Name: class 1
//
Smiles Representation: O=C(O)CCCCCCCCCCC(=O)Nc1ccc(O)cc1
Class Name: class 1

All values here come from ChEMBL document CHEMBL5260861.
